- Tgt: SMARCA4 (Homo sapiens, UniProt P51532)
- Construct: SMARCA2/SMARCA4 protein degradation selectivity in MV4-11 cells; endogenous in cells; host or cells: MV4-11
- Sequence (P51532 whole entry): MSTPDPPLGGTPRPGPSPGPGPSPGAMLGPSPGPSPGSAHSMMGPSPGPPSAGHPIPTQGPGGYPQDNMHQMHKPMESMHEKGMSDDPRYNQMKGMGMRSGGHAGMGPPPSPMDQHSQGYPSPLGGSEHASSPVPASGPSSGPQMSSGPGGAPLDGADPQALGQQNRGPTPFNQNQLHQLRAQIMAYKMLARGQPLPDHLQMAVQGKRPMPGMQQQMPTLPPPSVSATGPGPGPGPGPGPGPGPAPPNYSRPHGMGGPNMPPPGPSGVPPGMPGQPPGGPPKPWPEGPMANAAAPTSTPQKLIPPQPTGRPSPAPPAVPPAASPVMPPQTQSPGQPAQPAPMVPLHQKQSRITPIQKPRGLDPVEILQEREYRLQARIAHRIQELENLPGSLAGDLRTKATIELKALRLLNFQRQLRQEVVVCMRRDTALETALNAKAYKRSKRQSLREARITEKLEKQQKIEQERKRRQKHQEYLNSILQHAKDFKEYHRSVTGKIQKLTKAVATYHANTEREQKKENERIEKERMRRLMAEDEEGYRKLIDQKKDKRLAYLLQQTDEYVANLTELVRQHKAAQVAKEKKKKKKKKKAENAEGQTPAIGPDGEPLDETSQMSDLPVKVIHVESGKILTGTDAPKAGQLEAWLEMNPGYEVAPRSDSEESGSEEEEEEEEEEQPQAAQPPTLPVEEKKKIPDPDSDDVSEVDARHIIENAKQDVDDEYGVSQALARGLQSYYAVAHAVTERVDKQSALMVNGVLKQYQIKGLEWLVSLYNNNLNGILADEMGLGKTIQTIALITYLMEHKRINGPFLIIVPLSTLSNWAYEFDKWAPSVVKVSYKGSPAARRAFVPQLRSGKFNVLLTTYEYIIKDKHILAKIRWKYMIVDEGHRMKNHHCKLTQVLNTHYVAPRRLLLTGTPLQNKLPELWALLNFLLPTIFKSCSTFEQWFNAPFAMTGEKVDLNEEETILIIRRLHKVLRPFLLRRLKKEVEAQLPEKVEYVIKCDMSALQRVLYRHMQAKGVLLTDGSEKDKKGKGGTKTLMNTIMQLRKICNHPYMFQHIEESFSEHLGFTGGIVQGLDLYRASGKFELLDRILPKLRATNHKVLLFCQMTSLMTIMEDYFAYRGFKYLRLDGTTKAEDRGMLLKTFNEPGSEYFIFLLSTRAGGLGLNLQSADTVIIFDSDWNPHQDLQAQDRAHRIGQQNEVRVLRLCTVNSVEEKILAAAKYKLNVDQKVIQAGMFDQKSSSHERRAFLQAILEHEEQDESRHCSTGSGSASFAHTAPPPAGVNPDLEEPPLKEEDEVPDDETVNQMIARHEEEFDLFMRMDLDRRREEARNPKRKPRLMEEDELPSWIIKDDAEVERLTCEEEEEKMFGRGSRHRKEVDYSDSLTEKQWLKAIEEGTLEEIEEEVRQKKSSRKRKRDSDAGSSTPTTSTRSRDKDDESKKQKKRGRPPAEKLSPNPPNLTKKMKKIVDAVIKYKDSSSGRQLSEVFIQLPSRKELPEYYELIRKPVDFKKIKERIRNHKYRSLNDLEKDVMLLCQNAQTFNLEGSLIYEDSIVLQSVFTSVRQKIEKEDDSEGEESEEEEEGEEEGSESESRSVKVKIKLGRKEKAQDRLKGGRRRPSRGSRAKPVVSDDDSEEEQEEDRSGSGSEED
- Assay Method Text: SMARCA4 Western blot degradation in MV4-11 cells
- Format: cell-based
- Applied Conditions: MV4-11 cells, 24 h; read-out: SMARCA4 MSD MV411 degradation 24 h: Mean external-Abs DC50
Let's look at some compounds and their measured DC50.
Quantity Name: DC50

INSERT INTO results (compound, tgt, result) VALUES
  ('C#Cc1ccc(CNC(=O)[C@@H]2C[C@@H](O)CN2C(=O)[C@@H](NC(=O)N2CC3(CC(N4CCC(N5CCC(N6CCc7[nH]c8nnc(-c9ccccc9O)cc8c7[C@H]6C)C5)CC4)C3)C2)C(C)(C)C)cc1 (mixture of isomers)', 'SMARCA4 (Homo sapiens, UniProt P51532)', '> 100 nM'),
  ('C#CCOc1cc(C(C(=O)N2C[C@H](O)C[C@H]2C(=O)NCc2ccc(-c3scnc3C)cc2O[C@H]2CC[C@H](N3CCC(c4cnc(N5CCc6[nH]c7nnc(-c8ccccc8O)cc7c6[C@H]5C)nc4)CC3)CC2)C(C)C)on1 (single isomer, unassigned)', 'SMARCA4 (Homo sapiens, UniProt P51532)', '10 to 100 nM'),
  ('C#Cc1ccc([C@H](C)NC(=O)[C@@H]2C[C@@H](O)CN2C(=O)[C@@H](NC(=O)[C@H]2CC3(C2)C[C@H](N2CCC(N4CCC(N5CCN6c7cc(-c8ccccc8O)nnc7NC[C@H]6C5)CC4)CC2)C3)C(C)(C)C)cc1 (single isomer, unassigned) [I-226]', 'SMARCA4 (Homo sapiens, UniProt P51532)', '> 100 nM'),
  ('Cc1ncsc1-c1ccc(CNC(=O)[C@@H]2C[C@@H](O)CN2C(=O)[C@@H](NC(=O)[C@H]2CC3(C2)C[C@H](N2CCC(c4ccnc(N5CCN6c7cc(-c8ccccc8O)nnc7NC[C@@H]6C5)n4)CC2)C3)C(C)(C)C)cc1 (single isomer, unassigned) [I-3]', 'SMARCA4 (Homo sapiens, UniProt P51532)', '> 100 nM'),
  ('Cc1ncsc1-c1ccc(CNC(=O)[C@@H]2C[C@@H](O)CN2C(=O)C(c2cc(OCCCN3CCC(c4cnc(N5CCN6c7cc(-c8ccccc8O)nnc7NC[C@H]6C5)nc4)CC3)no2)C(C)C)cc1 (single isomer, unassigned)', 'SMARCA4 (Homo sapiens, UniProt P51532)', '1 to 10 nM'),
  ('C#Cc1ccc([C@H](C)NC(=O)[C@@H]2C[C@@H](O)CN2C(=O)[C@@H](NC(=O)[C@H]2CCC3(CC2)C[C@H](N2CCN(c4cnc(N5CCN6c7cc(-c8ccccc8O)nnc7NC[C@H]6C5)nc4)CC2)C3)C(C)(C)C)cc1 (single isomer, unassigned) [I-234]', 'SMARCA4 (Homo sapiens, UniProt P51532)', '> 100 nM'),
  ('C#Cc1ccc(CNC(=O)[C@@H]2C[C@@H](O)CN2C(=O)[C@@H](NC(=O)N2CC3(CC(N4CCC(c5cnc(N6CCc7[nH]c8nnc(-c9ccccc9O)cc8c7[C@H]6C)nc5)CC4)C3)C2)C(C)(C)C)c(OCCCOC)c1', 'SMARCA4 (Homo sapiens, UniProt P51532)', '10 to 100 nM'),
  ('C#Cc1ccc(CNC(=O)[C@@H]2C[C@@H](O)CN2C(=O)[C@@H](NC(=O)N2CC3(CC(c4cnc(N5CCC(N6CCN7c8cc(-c9ccccc9O)nnc8NC[C@H]7C6)CC5)nc4)C3)C2)C(C)(C)C)cc1', 'SMARCA4 (Homo sapiens, UniProt P51532)', '10 to 100 nM');

This collection of values is drawn from patent US20250170248A1.
